Data credit: patent US12195427B2

# assay.target: MASP-2 CCP2-SP (Homo sapiens (Human))
# Sequence (O00187 445-686): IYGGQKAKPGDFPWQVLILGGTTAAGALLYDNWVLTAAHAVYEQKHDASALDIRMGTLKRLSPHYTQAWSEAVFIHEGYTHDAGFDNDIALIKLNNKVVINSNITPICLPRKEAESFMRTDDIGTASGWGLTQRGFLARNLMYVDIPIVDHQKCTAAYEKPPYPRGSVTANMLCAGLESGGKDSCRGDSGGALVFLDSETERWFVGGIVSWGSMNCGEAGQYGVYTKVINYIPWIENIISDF
# Sequence (O00187 364-432 partner): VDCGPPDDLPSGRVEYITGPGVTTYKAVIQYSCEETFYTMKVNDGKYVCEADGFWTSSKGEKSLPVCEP
# assay.protocol: MASP-2 co-crystallization, X-ray crystallography and structure analysis (H-bonds, van der Waals contacts)
# Parameters: unit not given beside the values
# condition.parameters: Table A5-2 pharmacophore distance, S3/S4 region
# Excerpt: This example illustrates the preparation of recombinant MASP-2 protein, based on UniProt O00187, human mannan-binding lectin serine protease 2. Expression constructs for human MASP-2 CCP2-SP and CCP2-SP-6HIS were generated for recombinant expression in E. coli cells. […]

{"compound": "C[C@H](NC(=O)[C@H]1Cc2c([nH]c3ccccc23)CN1)C(=O)NCc1ccc(C(=N)N)cc1.Cl.Cl [1097_2]", "d(O2,H3)": 4.29}
{"compound": "Cc1nc(N)ccc1CNC(=O)[C@H](C)NC(=O)[C@H]1C[C@H](Cc2ccc3ccccc3c2)CN1 [compound 1338]", "d(O2,H3)": 4.29}
{"compound": "C[C@H](NC(=O)[C@H](N)CCc1ccccc1)C(=O)NCc1ccc(N)nc1.Cl.Cl [1007_2]", "d(O2,H3)": 4.67}
{"compound": "C[C@H](NC(=O)[C@H](N)CCc1cccc(Cl)c1)C(=O)NCc1ccc(C(=N)N)cc1 [compound 1081]", "d(O2,H3)": 5.78}
{"compound": "C[C@H](NC(=O)[C@H]1C[C@H](Cc2ccccc2)CN1)C(=O)NCc1ccc(C(=N)N)cc1.Cl.Cl [1306_2]", "d(O2,H3)": 4.46}
{"compound": "Cc1nc(N)ccc1CNC(=O)C(C)NC(=O)[C@H]1C[C@H](c2cccc(-c3ccccc3)c2)CN1 (stereo in doubt) [compound 1360]", "d(O2,H3)": 4.32}
{"compound": "C[C@H](NC(=O)[C@H]1C[C@@H](c2ccccc2)CCN1)C(=O)NCc1cc(Cl)ccc1O.Cl [1078_16]", "d(O2,H3)": 2.96}

---

# assay.target: UniProt O00187
# assay.protocol: MASP-2 co-crystallization, X-ray crystallography and structure analysis (H-bonds, van der Waals contacts);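 on Ligand-pharmacophore element distance, pharmacophore element C2: distance from averaged pharmacophore element to bound ligand; missing value means element absent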
# condition.parameters: Table A4-1; element C2
Structures can show the parent of a compound that is named as a salt.
# Ligand-pharmacophore element distance, pharmacophore element C2 listing for each entry below
measured.property: Ligand-pharmacophore element distance, pharmacophore element C2

{"molecule": "C[C@H](NC(=O)[C@H]1C[C@@H](c2ccccc2)CCN1)C(=O)NCc1cc(Cl)ccc1O.Cl [1078_7]", "assay.target": "UniProt O00187", "measured": 0.64}
{"molecule": "C[C@H](NC(=O)[C@H]1C[C@@H](c2ccccc2)CN1)C(=O)NCc1ccc(C(=N)N)cc1", "assay.target": "UniProt O00187", "measured": 0}
{"molecule": "C[C@H](NC(=O)[C@H]1C[C@@H](c2ccccc2)CCN1)C(=O)NCc1cc(Cl)ccc1O.Cl [1078_5]", "assay.target": "UniProt O00187", "measured": 0.71}
{"molecule": "C[C@H](NC(=O)[C@H](N)CCc1ccccc1)C(=O)NCc1ccc(N)nc1.Cl.Cl [1007_2]", "assay.target": "UniProt O00187", "measured": 0}
{"molecule": "Cc1nc(N)ccc1CNC(=O)[C@H](C)NC(=O)[C@H]1C[C@@H](Cc2ccccc2)CCN1", "assay.target": "UniProt O00187", "measured": 0.58}
{"molecule": "Cc1cccc([C@H]2CN[C@@H](C(=O)N[C@@H](C)C(=O)NCc3ccc(N)nc3C)C2)c1 [compound 1257, Dihydrochloride]", "assay.target": "UniProt O00187", "measured": 0}
{"molecule": "N=C(N)c1ccc(CNC(=O)C(CF)NC(=O)[C@H](N)CCc2ccccc2)cc1 (stereo partly shown) [compound 1050, Dihydrochloride]", "assay.target": "UniProt O00187", "measured": 6.95}
